# system tested: human TLR8 (Homo sapiens (Human))
# assay: TLR8 inhibition reporter assay (HEK-Blue SEAP)
# condition label: read-out: TLR8 IC50; HEK-Blue cells overexpressing human TLR8, R848 15.9 μM stimulation, SEAP reporter
quantity measured: IC50 (nM)

As a guide, the following entries are already answered.
compound=Cc1c(-c2[nH]c3ccc(N4CCN(C(=O)CNC5CCC5)CC4)nc3c2C(C)C)cn2ncnc2c1C numeric_result=0.79
compound="CCn1cc(-c2[nH]c3ccc(C4CCC(O)CC4)nc3c2C(C)C)c2cccnc21 (centres unmarked)" numeric_result=208
compound="COc1cc(-c2[nH]c3ccc(C4CCC(N(CC#N)C5COC5)CC4)nc3c2C(C)C)cn2ncnc12 (centres unmarked)" numeric_result=1.6

(I) CC(C)c1c(-c2cc(CO)c3ncnn3c2)[nH]c2ccc(N3CCC(NCC(=O)N(C)C)CC3)nc12 [Example 85]
(II) Cc1cc(-c2[nH]c3ccc(C4CCC(NC5COC5)CC4)nc3c2C(C)C)cc(C)n1 (centres unmarked) [Example 282]
Kindly identify which of I and II has the larger recorded IC50 value. Indicate your choice by writing its label.
I
(I: 5.8 nM, II: 0.91 nM)

(1) COc1cc(-c2[nH]c3ccc(N4CC(N(C)C(=O)CN(C)C)C4)nc3c2C(C)C)cn2ncnc12
(2) Cc1c(-c2[nH]c3ccc(N4CCC(N(C)C5CCOCC5)CC4)nc3c2C(C)C)cn2ncnc2c1C
Kindly identify which of 1 and 2 has the larger recorded IC50 value. Indicate your choice by writing its label.
1
(1: 1500 nM, 2: 0.39 nM)

###

# system tested: human TLR8 (Homo sapiens (Human), UniProt Q9NR97)
# Sequence (Q9NR97 27-1041): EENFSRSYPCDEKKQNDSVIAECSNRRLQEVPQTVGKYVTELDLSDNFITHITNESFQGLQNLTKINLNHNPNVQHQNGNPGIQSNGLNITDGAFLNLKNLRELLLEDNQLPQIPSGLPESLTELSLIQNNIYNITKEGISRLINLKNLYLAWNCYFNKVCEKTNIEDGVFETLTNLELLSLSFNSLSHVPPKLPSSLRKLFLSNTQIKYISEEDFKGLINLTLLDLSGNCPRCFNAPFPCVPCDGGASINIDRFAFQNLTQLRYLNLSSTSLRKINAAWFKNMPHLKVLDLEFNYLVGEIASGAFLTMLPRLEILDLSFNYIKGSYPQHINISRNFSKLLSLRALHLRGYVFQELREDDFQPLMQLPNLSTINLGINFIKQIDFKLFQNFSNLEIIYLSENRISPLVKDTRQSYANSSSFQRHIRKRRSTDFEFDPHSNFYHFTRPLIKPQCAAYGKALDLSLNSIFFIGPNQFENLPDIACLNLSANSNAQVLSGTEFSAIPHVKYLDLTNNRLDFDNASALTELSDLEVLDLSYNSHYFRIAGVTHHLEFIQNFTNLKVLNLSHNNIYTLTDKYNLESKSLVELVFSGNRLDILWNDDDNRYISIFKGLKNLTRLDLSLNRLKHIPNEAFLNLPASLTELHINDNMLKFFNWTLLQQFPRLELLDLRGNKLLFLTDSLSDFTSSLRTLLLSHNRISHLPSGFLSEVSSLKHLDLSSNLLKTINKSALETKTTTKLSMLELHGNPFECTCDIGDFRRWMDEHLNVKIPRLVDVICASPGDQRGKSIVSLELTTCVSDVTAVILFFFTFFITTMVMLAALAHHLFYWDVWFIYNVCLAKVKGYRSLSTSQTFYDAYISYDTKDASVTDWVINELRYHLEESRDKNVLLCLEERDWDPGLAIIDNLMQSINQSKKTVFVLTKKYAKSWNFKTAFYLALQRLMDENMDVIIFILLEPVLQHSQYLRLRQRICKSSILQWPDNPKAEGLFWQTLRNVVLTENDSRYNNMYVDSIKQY
# assay: TLR8 inhibition reporter assay (HEK-Blue SEAP);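 note: SEAP driven by IFN-β minimal promoter carrying NF-κB and AP-1 sites, compounds dosed 0.05 nM to 50 µM for 22 h, inhibition scaled between agonist-plus-DMSO and reference-inhibitor wells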
# condition label: TLR8 IC50, HEK-Blue human TLR8 cells, R848 15.9 μM
quantity measured: IC50 (nM)

As a guide, the following entries are already answered.
molecule=[2H]C([2H])([2H])N(CCC(=O)N1C[C@H](C)N(c2ccc3[nH]c(-c4cn5ncnc5c(C)c4C)c(C(C)C)c3n2)C[C@H]1C)C([2H])([2H])[2H] unit_descriptor=nM numeric_result=1.1
molecule=[2H]C([2H])([2H])NCC(=O)N1CCN(c2ccc3[nH]c(-c4cn5ncnc5c(C)c4C)c(C(C)C)c3n2)CC1 unit_descriptor=nM numeric_result=0.7
molecule="[2H]C([2H])([2H])N(CC(=O)N1C([2H])([2H])C([2H])([2H])N(c2ccc3[nH]c(-c4cn5ncnc5c(C)c4C)c(C(C)C)c3n2)C([2H])([2H])C1([2H])[2H])C([2H])([2H])[2H] (single isomer, unassigned)" unit_descriptor=nM numeric_result=1.5

(I) [2H]C1([2H])N(C(=O)CN(C)C)C([2H])([2H])C([2H])([2H])N(c2ccc3[nH]c(-c4cn5ncnc5c(C)c4C)c(C(C)C)c3n2)C1([2H])[2H] (single isomer, unassigned)
(II) [2H]C([2H])([2H])N(CC(=O)N1CCN(c2ccc3[nH]c(-c4cn5ncnc5c(C)c4C)c(C(C)C)c3n2)[C@H](C)C1)C([2H])([2H])[2H]
(III) [2H]C([2H])(C(=O)N1CCN(c2ccc3[nH]c(-c4cn5ncnc5c(C)c4C)c(C(C)C)c3n2)CC1)N(C)C (single isomer, unassigned)
(IV) [2H]C([2H])([2H])N(CC(=O)N1CCN(c2ccc3[nH]c(-c4cn5ncnc5c(C)c4C)c(C(C)C)c3n2)CC1)C([2H])([2H])[2H] (single isomer, unassigned)
Rank by IC50 (largest to smallest). A complete answer lists every label in the requested sequence.
II, IV, I, III
(II: 3.5 nM, IV: 2.3 nM, I: 1.3 nM, III: 0.76 nM)

(1) [2H]C([2H])([2H])N(C([2H])([2H])[2H])C([2H])([2H])C(=O)N1C([2H])([2H])C([2H])([2H])N(c2ccc3[nH]c(-c4cn5ncnc5c(C)c4C)c(C(C)C)c3n2)C([2H])([2H])C1([2H])[2H] (single isomer, unassigned)
(2) [2H]C([2H])(C(=O)N1C([2H])([2H])C([2H])([2H])N(c2ccc3[nH]c(-c4cn5ncnc5c(C)c4C)c(C(C)C)c3n2)C([2H])([2H])C1([2H])[2H])N(C)C (single isomer, unassigned)
Kindly identify which of 1 and 2 has the larger recorded IC50 value. Indicate your choice by writing its label.
2

###

# system tested: human TLR8 (Homo sapiens (Human))
# assay: TLR8 inhibition reporter assay (HEK-Blue SEAP)
# condition label: read-out: TLR8 IC50; HEK-Blue cells overexpressing human TLR8, R848 15.9 μM stimulation, SEAP reporter
quantity measured: IC50 (nM)

As a guide, the following entries are already answered.
compound="CC(C)c1c(-c2cn(C)c3ncccc23)[nH]c2ccc(C3CCC(NC4CCOCC4)CC3)nc12 (stereo not shown) [Example 265]" numeric_result=0.91
compound="COc1cc(-c2[nH]c3ccc(C4CCC(N5CCC[C@H]5CO)CC4)nc3c2C(C)C)cn2ncnc12 (stereo partly shown) [Example 197]" numeric_result=1.7
compound="Cc1c(-c2[nH]c3ccc(C4CCC(N5CCOCC5)CC4)nc3c2C(C)C)cn2ncnc2c1C (stereo not shown) [Example 362]" numeric_result=5.1
compound="COc1ncnc(OC)c1CNC1CCN(c2ccc3[nH]c(-c4cn5ncnc5c(C)c4C)c(C(C)C)c3n2)CC1 [Example 69]" numeric_result=1310
compound="COc1cc(-c2[nH]c3cc(C)c(C4CCC(NCC(F)F)CC4)nc3c2C(C)C)cn2ncnc12 (stereo not shown) [Example 322]" numeric_result=19

(P) COc1cc(-c2[nH]c3cc(C)c(C4CCC(N5CC6(COC6)C5)CC4)nc3c2C(C)C)cn2ncnc12 (stereo not shown) [Example 317]
(Q) COc1cc(-c2[nH]c3cc(C)c(C4CCC(NCC(C)(C)O)CC4)nc3c2C(C)C)cn2ncnc12 (stereo not shown) [Example 321]
Hey, between P and Q which has a smaller measured IC50? Indicate your choice by writing its label.
Q
(Q: 3 nM, P: 94 nM)

###

# system tested: human TLR9 (Homo sapiens (Human), UniProt Q9NR96)
# Sequence (Q9NR96 26-1032): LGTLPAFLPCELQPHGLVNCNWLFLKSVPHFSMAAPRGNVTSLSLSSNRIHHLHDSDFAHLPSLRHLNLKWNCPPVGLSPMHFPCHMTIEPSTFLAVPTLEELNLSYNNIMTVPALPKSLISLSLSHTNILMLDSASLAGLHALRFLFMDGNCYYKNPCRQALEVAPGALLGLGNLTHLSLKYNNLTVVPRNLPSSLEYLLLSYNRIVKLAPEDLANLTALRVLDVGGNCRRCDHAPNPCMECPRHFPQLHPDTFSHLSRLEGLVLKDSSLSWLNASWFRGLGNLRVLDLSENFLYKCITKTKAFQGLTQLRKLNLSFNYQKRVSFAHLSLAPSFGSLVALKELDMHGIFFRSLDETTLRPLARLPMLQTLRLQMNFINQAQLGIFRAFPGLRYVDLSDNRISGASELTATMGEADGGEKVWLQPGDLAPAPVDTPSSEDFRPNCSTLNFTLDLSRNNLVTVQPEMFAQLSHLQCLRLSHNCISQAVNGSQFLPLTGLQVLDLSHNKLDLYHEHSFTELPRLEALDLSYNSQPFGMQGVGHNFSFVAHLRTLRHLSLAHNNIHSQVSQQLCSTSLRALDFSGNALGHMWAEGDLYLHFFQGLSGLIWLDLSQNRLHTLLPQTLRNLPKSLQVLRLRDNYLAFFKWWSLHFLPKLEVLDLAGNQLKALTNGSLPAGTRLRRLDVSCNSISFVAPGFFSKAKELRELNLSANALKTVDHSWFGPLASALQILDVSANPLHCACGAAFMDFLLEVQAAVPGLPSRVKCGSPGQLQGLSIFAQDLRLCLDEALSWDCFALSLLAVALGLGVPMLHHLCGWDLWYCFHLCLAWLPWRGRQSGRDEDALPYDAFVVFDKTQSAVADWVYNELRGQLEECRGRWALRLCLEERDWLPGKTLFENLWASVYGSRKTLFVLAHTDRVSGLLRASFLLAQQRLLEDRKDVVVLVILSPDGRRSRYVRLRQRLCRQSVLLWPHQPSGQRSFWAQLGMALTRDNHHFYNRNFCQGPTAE
# assay: TLR9 inhibition reporter assay (HEK-Blue SEAP)
# condition label: read-out: TLR9 IC50; HEK-Blue human TLR9 cells, ODN2006 5 nM
quantity measured: IC50 (µM)

As a guide, the following entries are already answered.
compound=CCN(CC(=O)N1C[C@H](C)N(c2ccc3[nH]c(-c4cn5ncnc5c(C)c4C)c(C(C)C)c3n2)C[C@H]1C)C(C)C quantity_measured=IC50 unit_descriptor=µM numeric_result=9.33
compound=Cc1c(-c2[nH]c3ccc(N4C[C@H](C)N(CCC(N)=O)C[C@@H]4C)nc3c2C(C)C)cn2ncnc2c1C quantity_measured=IC50 unit_descriptor=µM numeric_result=18
compound=CCN(C)CC(=O)N1[C@H](C)CN(c2ccc3[nH]c(-c4cn5ncnc5c(C)c4C)c(C(C)C)c3n2)C[C@H]1C quantity_measured=IC50 unit_descriptor=µM numeric_result=4.36
compound="Cc1c(-c2[nH]c3ccc(N4CCN(C(=O)CN5CCC(F)C5)CC4)nc3c2C(C)C)cn2ncnc2c1C (stereo not shown)" quantity_measured=IC50 unit_descriptor=µM numeric_result=43.2
compound=Cc1c(-c2[nH]c3ccc(N4C[C@@H](C)N(C(=O)CN(C)C)[C@@H](C)C4)nc3c2C(C)C)cn2ncnc2c1C quantity_measured=IC50 unit_descriptor=µM numeric_result=7.04

(a) Cc1c(-c2[nH]c3ccc(C4CCC(N5CCC(F)C5)CC4)nc3c2C(C)C)cn2ncnc2c1C (stereo not shown) [Example 1058]
(b) Cc1c(-c2[nH]c3ccc(N4CC5(CN(CC(C)(C)C)C5)C4)nc3c2C(C)C)cn2ncnc2c1C
Hey, between a and b which has a smaller measured IC50? Indicate your choice by writing its label.
b

###

# system tested: UniProtKB Q9NR97
# assay: TLR8 inhibition reporter assay (HEK-Blue SEAP)
# condition label: read-out: TLR8 IC50; HEK-Blue cells overexpressing human TLR8, R848 15.9 μM stimulation, SEAP reporter
pIC50: −log10 of the molar value.
quantity measured: pIC50

molecule="Cc1cc(-c2[nH]c3ccc(C4CCC(NCC(=O)N(C)C)CC4)nc3c2C(C)C)cn2ncnc12 (stereo not shown)" numeric_result=8.14

(A) COc1cc(-c2[nH]c3cc(C)c(C4CCC(N(C)CC(C)(C)C)CC4)nc3c2C(C)C)cn2ncnc12 (stereo not shown) [Example 334]
(B) COc1cc(-c2[nH]c3ccc(N4CC(NCC5(C)COC5)C4)nc3c2C(C)C)cn2ncnc12
Kindly identify which of A and B has the larger recorded pIC50 value. Indicate your choice by writing its label.
B
(B: 7.37, A: 6.90)

###

# system tested: human TLR9 (Homo sapiens (Human), UniProt Q9NR96)
# assay: TLR9 inhibition reporter assay (HEK-Blue SEAP)
# condition label: read-out: TLR9 IC50; HEK-Blue cells overexpressing human TLR9, ODN2006 5 nM stimulation, SEAP reporter
quantity measured: IC50 (µM)

compound="CC(C)c1c(-c2cc(CO)c3ncnn3c2)[nH]c2ccc(N3CCC(NCC(=O)N(C)C)CC3)nc12 [Example 85]" quantity_measured=IC50 numeric_result=5.18

(I) Cc1c(-c2[nH]c3ccc(N4CC(N(C)C(=O)CN(C)C)C4)nc3c2C(C)C)cn2ncnc2c1C [Example 19]
(II) COc1cc(-c2[nH]c3ccc(N4CC(NCC(=O)N(C)C)C4)nc3c2C(C)C)cn2ncnc12 [Example 18]
Kindly identify which of I and II has the larger recorded IC50 value. Indicate your choice by writing its label.
I
